target_system: UniProt O00763
assay_remarks: ACC2 assay (spectrophotometric 384 well assay, NADH-linked kinetic method)
Assay type: biochemical
test_parameters: hACC2 construct lacking 128 N-terminal amino acids; coupled lactate dehydrogenase/pyruvate kinase reaction, 340 nm, 25° C.
Each entry below lists one item and its recorded pIC50 value.
The meaning of pIC50 here: minus log10 of the concentration in molar units.

Observe how each entry below is paired with its result.
Please look up its pIC50: `CC(=O)N[C@@H](C)c1ccc(O[C@@H]2CCN(c3nc(N4CC[C@H](F)C4)ncc3Cl)C2)cc1` 6.23

// next record `CC(=O)N[C@@H](C)c1ccc(O[C@@H]2CCN(c3nc(N(C)C[C@@H]4CCCO4)ncc3Cl)C2)cc1` 6.98

// next record CC(=O)N[C@@H](C)c1ccc(O[C@@H]2CCN(c3nc(N(C)CC(C)O)ncc3Cl)C2)cc1 (stereo partly shown) 6.12

// next record `C[C@H](NC(=O)c1cncs1)c1ccc(O[C@@H]2CCN(c3nc(N(C)C)ncc3F)C2)cc1` 6.92

// next record `CCCNc1ncc(F)c(N2CC[C@@H](Oc3ccc([C@H](C)NC(C)=O)cc3)C2)n1` 6.69

Next:
Please look up its pIC50: `CC(=O)N[C@@H](C)c1ccc(O[C@@H]2CCN(c3ccnc(N(C)CCc4ccccc4)n3)C2)cc1` 6.01

// next record `CC(=O)N[C@@H](C)c1ccc(O[C@@H]2CCN(c3ccnc(OCC(C)C)n3)C2)cc1` 6.02

* * *

target_system: human ACC2 (Homo sapiens (Human), UniProt O00763)
Sequence (O00763 129-2458): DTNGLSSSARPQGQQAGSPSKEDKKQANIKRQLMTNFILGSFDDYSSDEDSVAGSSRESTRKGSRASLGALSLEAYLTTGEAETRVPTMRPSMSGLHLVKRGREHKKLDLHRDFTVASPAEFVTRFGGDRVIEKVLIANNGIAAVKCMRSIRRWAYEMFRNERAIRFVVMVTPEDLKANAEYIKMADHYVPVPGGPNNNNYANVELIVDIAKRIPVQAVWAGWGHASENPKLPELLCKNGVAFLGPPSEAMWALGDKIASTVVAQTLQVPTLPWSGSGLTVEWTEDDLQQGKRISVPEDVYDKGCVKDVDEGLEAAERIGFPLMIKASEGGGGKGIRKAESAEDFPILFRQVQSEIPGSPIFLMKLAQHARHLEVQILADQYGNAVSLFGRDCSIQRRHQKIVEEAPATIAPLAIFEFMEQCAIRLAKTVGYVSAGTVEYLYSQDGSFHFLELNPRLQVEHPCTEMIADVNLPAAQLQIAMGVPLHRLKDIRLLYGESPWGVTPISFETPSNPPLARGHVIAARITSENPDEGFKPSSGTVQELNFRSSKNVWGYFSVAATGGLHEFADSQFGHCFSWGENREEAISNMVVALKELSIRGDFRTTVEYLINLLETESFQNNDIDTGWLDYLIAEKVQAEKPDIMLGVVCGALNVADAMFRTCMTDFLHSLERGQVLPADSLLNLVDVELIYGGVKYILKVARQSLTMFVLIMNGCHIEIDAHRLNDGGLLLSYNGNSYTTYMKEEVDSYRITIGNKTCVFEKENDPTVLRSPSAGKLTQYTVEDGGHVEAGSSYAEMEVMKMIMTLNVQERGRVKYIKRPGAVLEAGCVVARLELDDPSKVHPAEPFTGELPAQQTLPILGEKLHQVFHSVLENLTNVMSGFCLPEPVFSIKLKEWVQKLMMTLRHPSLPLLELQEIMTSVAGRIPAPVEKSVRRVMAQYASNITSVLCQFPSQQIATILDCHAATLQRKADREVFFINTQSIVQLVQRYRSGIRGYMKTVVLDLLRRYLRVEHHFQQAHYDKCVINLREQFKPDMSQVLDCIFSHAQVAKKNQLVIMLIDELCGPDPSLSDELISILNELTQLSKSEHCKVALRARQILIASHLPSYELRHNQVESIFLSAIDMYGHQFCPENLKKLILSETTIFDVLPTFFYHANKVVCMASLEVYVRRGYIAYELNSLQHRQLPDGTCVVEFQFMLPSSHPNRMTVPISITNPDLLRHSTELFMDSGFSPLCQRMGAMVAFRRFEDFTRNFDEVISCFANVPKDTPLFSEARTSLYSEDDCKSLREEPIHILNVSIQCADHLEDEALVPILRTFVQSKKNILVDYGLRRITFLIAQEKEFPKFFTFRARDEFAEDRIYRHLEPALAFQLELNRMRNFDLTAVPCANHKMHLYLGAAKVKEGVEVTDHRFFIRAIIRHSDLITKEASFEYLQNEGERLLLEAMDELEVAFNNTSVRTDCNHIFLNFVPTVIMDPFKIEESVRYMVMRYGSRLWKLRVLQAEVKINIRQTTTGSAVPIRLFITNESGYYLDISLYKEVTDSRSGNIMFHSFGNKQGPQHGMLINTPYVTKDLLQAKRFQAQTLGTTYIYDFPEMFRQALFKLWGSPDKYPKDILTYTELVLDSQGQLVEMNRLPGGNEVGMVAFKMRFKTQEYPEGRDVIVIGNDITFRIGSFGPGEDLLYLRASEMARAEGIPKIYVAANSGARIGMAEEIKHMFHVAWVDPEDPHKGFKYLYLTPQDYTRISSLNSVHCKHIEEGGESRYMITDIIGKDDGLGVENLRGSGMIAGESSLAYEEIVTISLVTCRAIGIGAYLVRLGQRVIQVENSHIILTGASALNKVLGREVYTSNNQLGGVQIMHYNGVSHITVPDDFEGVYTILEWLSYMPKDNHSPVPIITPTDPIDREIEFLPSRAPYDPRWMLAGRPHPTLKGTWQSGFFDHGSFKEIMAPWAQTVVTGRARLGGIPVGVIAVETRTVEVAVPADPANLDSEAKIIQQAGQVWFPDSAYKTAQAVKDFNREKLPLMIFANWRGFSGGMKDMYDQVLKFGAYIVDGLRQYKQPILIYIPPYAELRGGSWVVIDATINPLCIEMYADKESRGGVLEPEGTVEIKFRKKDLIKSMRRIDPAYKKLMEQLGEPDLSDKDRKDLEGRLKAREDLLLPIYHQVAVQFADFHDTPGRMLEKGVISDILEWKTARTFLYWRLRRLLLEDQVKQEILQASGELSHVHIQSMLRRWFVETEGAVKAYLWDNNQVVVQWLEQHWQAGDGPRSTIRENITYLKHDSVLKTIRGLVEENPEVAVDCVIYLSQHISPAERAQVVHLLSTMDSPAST
assay_remarks: ACC2 assay (spectrophotometric 384 well assay, NADH-linked kinetic method)
Type: biochemical
test_parameters: hACC2 construct lacking 128 N-terminal amino acids; coupled lactate dehydrogenase/pyruvate kinase reaction, 340 nm, 25° C.
pIC50: −log10 of the molar value.
# pIC50 >= 7 gives Satisfied, anything below gives Not satisfied

Dear colleague, could you confirm whether `CC(=O)N[C@@H](C)c1ccc(O[C@@H]2CCN(c3nccc(N4CCCC4)n3)C2)cc1` has pIC50 at or above 7? Not satisfied

// next record `CCCOc1ncnc(N2CC[C@@H](Oc3ccc([C@H](C)NC(C)=O)cc3)C2)c1Cl` Satisfied

// next record CC(=O)N[C@@H](C)c1ccc(O[C@@H]2CCN(c3ncnc(N4CCC(CO)C4)c3F)C2)cc1 (stereo partly drawn) [Example 8.201] Not satisfied

* * *

target_system: UniProt O00763
assay_remarks: ACC2 assay (spectrophotometric 384 well assay, NADH-linked kinetic method)
Type: biochemical
test_parameters: hACC2 construct lacking 128 N-terminal amino acids; coupled lactate dehydrogenase/pyruvate kinase reaction, 340 nm, 25° C.
quantity_kind: IC50 (nM)
Report as a plain number; the unit nM is understood.

Observe how each entry below is paired with its result.
Please look up its IC50: `CCCc1cnc(N2CC[C@@H](Oc3ccc([C@H](C)NC(C)=O)cc3)C2)nc1` 714

// next record `COc1c(NCC2(O)CCC2)ncnc1N1CC[C@@H](Oc2ccc([C@H](C)NC(C)=O)cc2)C1` 537

// next record `CC(=O)N[C@@H](C)c1ccc(O[C@@H]2CCN(c3ncnc(N(C)C(C)C)c3F)C2)cc1` 131

Next:
Please look up its IC50: `CC(=O)N[C@@H](C)c1ccc(O[C@@H]2CCN(c3nccc(C(F)(F)F)n3)C2)cc1` 1730

// next record `CC(=O)N[C@@H](C)c1ccc(O[C@@H]2CCN(c3ccnc(N(C)C4CCCC4)n3)C2)cc1` 170
